System: DJM-1;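 also: growth inhibition of human DJM-1 cells, read out by a cell viability assay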
Assay: cells
Format: functional, cell-based, Homo sapiens
Details: Homo sapiens, DJM-1
Description: SANGER: Inhibition of human DJM-1 cell growth in a cell viability assay.
Readings of IC50 for the listed compounds

1) COc1ccc(N(C(=O)Oc2c(C)cccc2C)c2ccnc(Nc3ccc(N4CCN(C)CC4)cc3)n2)c(OC)c1; > 5.12 µM
2) CC1(C)CCC(c2ccc(Cl)cc2)=C(CN2CCN(c3ccc(C(=O)NS(=O)(=O)c4ccc(N[C@H](CCN5CCOCC5)CSc5ccccc5)c(S(=O)(=O)C(F)(F)F)c4)cc3)CC2)C1; > 2 µM
3) CC(C)C[C@H](NC(=O)[C@H](Cc1ccccc1)NC(=O)c1cnccn1)B(O)O; 0.00363 µM
4) Cc1ccc(-n2nc(C(C)(C)C)cc2NC(=O)Nc2ccc(OCCN3CCOCC3)c3ccccc23)cc1; > 10 µM
5) CS(=O)(=O)N1CCN(Cc2cc3nc(-c4cccc5[nH]ncc45)nc(N4CCOCC4)c3s2)CC1; > 4 µM

If you can, please state the reported IC50 value of CN(C)CCOc1ccc(-c2nc(-c3ccncc3)c(-c3ccc4c(c3)CC/C4=N\O)[nH]2)cc1 .
> 5 µM

Would you kindly share the measured IC50 for OC[C@H](Cc1ccccc1)Nc1nc(Oc2ccc3c(c2)CCC3)nc2c1ncn2Cc1ccc(-c2ccccc2)cc1 ?
> 10.2 µM

This collection of values is drawn from ChEMBL document CHEMBL1201861.
